Exercise: for every item that follows, state its recorded koff.
target: T1, recombinant human domain 1-3His6 of the cation-independent mannose-6-phosphate receptor (human, UniProt P11717 41-467); experiment: BLI exp 2, dissoc pH 6
T1 construct: Biotinylated (NHS-PEG4-biotin) for BLI; Glycosylated; also called hDom1-3His6; hCI-M6PRD1-D3
Give bare numbers, in s⁻¹.

binder	measurementUnits	koff
anti-CI-M6PR VHH8 (VHH, His6-tagged (Pichia pastoris)) VHH: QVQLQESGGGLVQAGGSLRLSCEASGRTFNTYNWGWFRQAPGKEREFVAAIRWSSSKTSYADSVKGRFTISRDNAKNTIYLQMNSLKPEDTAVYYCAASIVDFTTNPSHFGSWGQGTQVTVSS	s⁻¹	0.0012
anti-CI-M6PR VHH7 (VHH, His6-tagged (Pichia pastoris)) VHH: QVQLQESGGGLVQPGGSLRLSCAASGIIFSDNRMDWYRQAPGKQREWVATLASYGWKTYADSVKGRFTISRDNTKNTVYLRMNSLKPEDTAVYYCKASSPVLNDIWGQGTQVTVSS	s⁻¹	0.028
anti-CI-M6PR VHH3 (VHH, His6-tagged; made in Pichia pastoris) VHH: QVQLQESGGGLVQPGGSLRLSCAAFGLNFKNFDMIWFRQAPGEERDIVAAISSSSSTIWYEDSVKGRFTISRDNAKNTVYLQMNSLKPEDTAVYYCAAALTSWRRPDYWGQGTQVTVSS	s⁻¹	0.000499

Record koff for all entries; do not skip any.
1. anti-CI-M6PR VHH9 (VHH, His6-tagged; made in Pichia pastoris) VHH: QVQLQESGGGLVQAGGSLRLSCAASGTILSIKTMGWYRQAPGKEREWVATITSSSIPMYADSVKGRFTISRDDAKNTVYLQMNSLKPEDTGVYYCNAPWTDYWGQGTQVTVSS
2. anti-CI-M6PR VHH4 (VHH, His6-tagged; made in Pichia pastoris) VHH: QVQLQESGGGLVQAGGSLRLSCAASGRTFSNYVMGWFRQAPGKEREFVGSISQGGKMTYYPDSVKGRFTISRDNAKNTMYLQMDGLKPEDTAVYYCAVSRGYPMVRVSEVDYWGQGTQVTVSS
3. anti-CI-M6PR VHH2 (VHH, His6-tagged; made in Pichia pastoris) VHH: QVQLQESGGGLVQPGGSLRLSCVFSGRTFMSYDVGWFRQAPGKERELLSSITSSSSSPYYAESVKGRFAVSRDGAKKTVYLRMNSLEPEDTAVYYCAARENWRNDWQYWGQTQVTVSS
4. anti-CI-M6PR VHH1 (VHH, His6-tagged; made in Pichia pastoris, later also in E. coli WK6) VHH: QVQLQESGGGLVQPGGSLRLSCVASGFTFDRYWMNWLRQIPGKEIEWVSTINTGGTGTYYDDSVKGRFSISRDDAKNTLYLTMNSLKTEDTAVYYCARGATYYRGNSAIRGQGTQVTVSS
5. anti-CI-M6PR VHH10 (VHH, His6-tagged; made in Pichia pastoris) VHH: QVQLQESGGGSVQAGGSLRLSCAPAGRTFSRIRMGWFRQAPGKEREFVAAISSGGLSYYADSMKGRFTISRDNAKNTVLLQMNSLEPDDTAVYYCAAVLNDYIDDYVARNPTLYDYWGQGTQVTVSS

Out:
0.000122
0.00126
0.0748
0.021
0.00205
